- Target Of Assay: CyclinA2/CDK2 (Homo sapiens)
- Construct: purchased CRELUX Protein Services
- Assay Text: Fluorescence Polarization (FP) competitive binding assay, Cyclin A2/Cdk2
- Test Context: 8 nM Cyclin A2/Cdk2, 2 nM FAM probe; average of 2-3 independent experiments; read-out: Cyclin A FP IC50
pIC50: −log10 of the molar value. *1 amine or outer side, *2 acyl side, *3 side chain or, on linkers, in order; H or OH if unused. Where a SMILES comes first, the peptide text is derived from it. Bridges are numbered along the chain shown (N, C = ends). [ ]: non-standard residue; d: D form. The star is where a group is joined. X3 = COCCOCCN1CCN(c2ccc(-c3ccc(Cl)cc3C[C@@H](C(=O)[*:2])N(C)[*:1])cc2)CC1; X86 = CN([C@@H](Cc1cc(Cl)ccc1-c1cnn(C2CCOCC2)c1)C(=O)[*:2])[*:1]; X87 = CN([C@@H](Cc1cc(F)ccc1-c1ccc(N2CCOCC2)cc1)C(=O)[*:2])[*:1]; X90 = CC(=O)N1CC=C(c2ccc(Cl)cc2C[C@@H](C(=O)[*:2])N(C)[*:1])CC1; NMehhhLys(Me) = CN([C@@H](CCCCCCCN(C)[*:3])C(=O)[*:2])[*:1]; NMe(hhhLys) = CN([C@@H](CCCCCCCN[*:3])C(=O)[*:2])[*:1]; X94 = CN([C@@H](Cc1cc(F)ccc1C1CC1)C(=O)[*:2])[*:1]; cBuCO(3,3-F2-1-CF3) = O=C(C1(C(F)(F)F)CC(F)(F)C1)*; Pro(trans-4-F) = O=C(O)[C@@H]1C[C@@H](F)CN1; Gly(cPr) = N[C@H](C(=O)O)C1CC1
pIC50: recorded values

Molecule: CC(C)C[C@@H]1NC(=O)[C@@H](N(C)C(=O)[C@@H](NC(=O)[C@@H]2C[C@@H](F)CN2C(=O)C2(C(F)(F)F)CC(F)(F)C2)C2CC2)CCCCCCCN(C)C(=O)[C@H](Cc2cc(F)ccc2C2CC2)N(C)C1=O [Example 121] ({cBuCO(3,3-F2-1-CF3)}-[Pro(trans-4-F)][Gly(cPr)][NMehhhLys(Me)]L[X94]; lactam 3-C)
pIC50: 7.30
--
Molecule: CC(C)C[C@@H]1NC(=O)[C@@H](N(C)C(=O)[C@@H](NC(=O)[C@@H]2C[C@@H](F)CN2C(=O)C2(C(F)(F)F)CC(F)(F)C2)C2CC2)CC=CCCCCNC(=O)[C@H](Cc2cc(Cl)ccc2-c2cnn(CCO)c2)N(C)C1=O
pIC50: 7.40
--
Molecule: CC(=O)N1CC=C(c2ccc(Cl)cc2C[C@H]2C(=O)NCCCCCCC[C@H](N(C)C(=O)[C@@H](NC(=O)[C@@H]3C[C@@H](F)CN3C(=O)C3(C(F)(F)F)CC(F)(F)C3)C3CC3)C(=O)N[C@@H](CC(C)C)C(=O)N2C)CC1 [Example 20] ({cBuCO(3,3-F2-1-CF3)}-[Pro(trans-4-F)][Gly(cPr)][NMe(hhhLys)]L[X90]; lactam 3-C)
pIC50: 7.70
--
Molecule: CC(C)C[C@@H]1NC(=O)[C@@H](N(C)C(=O)[C@@H](NC(=O)[C@@H]2C[C@@H](F)CN2C(=O)C2(C(F)(F)F)CC(F)(F)C2)C2CC2)CCCCCCCN(C)C(=O)[C@H](Cc2cc(Cl)ccc2-c2cnn(C3CCOCC3)c2)N(C)C1=O [Example 114] ({cBuCO(3,3-F2-1-CF3)}-[Pro(trans-4-F)][Gly(cPr)][NMehhhLys(Me)]L[X86]; lactam 3-C)
pIC50: 7.70
--
Molecule: COCCOCCN1CCN(c2ccc(-c3ccc(Cl)cc3C[C@H]3C(=O)N(C)CCCCCCC[C@H](N(C)C(=O)[C@@H](NC(=O)[C@@H]4C[C@@H](F)CN4C(=O)C4(C(F)(F)F)CC(F)(F)C4)C4CC4)C(=O)N[C@@H](CC(C)C)C(=O)N3C)cc2)CC1 [Example 356] ({cBuCO(3,3-F2-1-CF3)}-[Pro(trans-4-F)][Gly(cPr)][NMehhhLys(Me)]L[X3]; lactam 3-C)
pIC50: 7.70
--
Molecule: CC(C)C[C@@H]1NC(=O)[C@@H](N(C)C(=O)[C@@H](NC(=O)[C@@H]2C[C@@H](F)CN2C(=O)C2(C(F)(F)F)CC(F)(F)C2)C2CC2)CCCCCCCN(C)C(=O)[C@H](Cc2cc(F)ccc2-c2ccc(N3CCOCC3)cc2)N(C)C1=O [Example 337] ({cBuCO(3,3-F2-1-CF3)}-[Pro(trans-4-F)][Gly(cPr)][NMehhhLys(Me)]L[X87]; lactam 3-C)
pIC50: 7.70

###

Measured IC50 values are reported for all entries that follow.
- Target Of Assay: CyclinA2/CDK2 (Homo sapiens, UniProt P20248)
- Construct: purchased CRELUX Protein Services
- Assay Text: Fluorescence Polarization (FP) competitive binding assay, Cyclin A2/Cdk2;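 also: plates equilibrated two hours at room temperature before polarization reading, IC50 fitted from eight-concentration compound titration curves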
- Test Context: 8 nM Cyclin A2/Cdk2, 2 nM FAM probe; average of 2-3 independent experiments; read-out: Cyclin A FP IC50
*1 amine or outer side, *2 acyl side, *3 side chain or, on linkers, in order; H or OH if unused. Where a SMILES comes first, the peptide text is derived from it. Bridges are numbered along the chain shown (N, C = ends). [ ]: non-standard residue; d: D form. The star is where a group is joined. X170 = CN([C@@H](Cc1cc(Cl)ccc1-c1ccc2nonc2c1)C(=O)[*:2])[*:1]; NMehhhLys(Me) = CN([C@@H](CCCCCCCN(C)[*:3])C(=O)[*:2])[*:1]; NMe3Pal(2-OiPr,5-Cl) = CN[C@@H](Cc1cc(Cl)cnc1OC(C)C)C(=O)O; NMe(hhhLys) = CN([C@@H](CCCCCCCN[*:3])C(=O)[*:2])[*:1]; Cyclobutanecarbonyl(1-CF3) = O=C(C1(C(F)(F)F)CCC1)*; cBuCO(3,3-F2-1-CF3) = O=C(C1(C(F)(F)F)CC(F)(F)C1)*; Pro(trans-4-F) = O=C(O)[C@@H]1C[C@@H](F)CN1; Gly(cPr) = N[C@H](C(=O)O)C1CC1
Readout Kind: IC50 (nM)

Compound: CC(C)C[C@@H]1NC(=O)[C@@H](N(C)C(=O)[C@@H](NC(=O)[C@@H]2C[C@@H](F)CN2C(=O)C2(C(F)(F)F)CC(F)(F)C2)C2CC2)CCCCCCCN(C)C(=O)[C@H](Cc2cc(Cl)ccc2-c2ccc3nonc3c2)N(C)C1=O [Example 170] ({cBuCO(3,3-F2-1-CF3)}-[Pro(trans-4-F)][Gly(cPr)][NMehhhLys(Me)]L[X170]; lactam 3-C)
Target Of Assay: CyclinA2/CDK2 (Homo sapiens, UniProt P20248)
Readout Kind: IC50
Result Units: nM
Recorded Measurement: 50

Compound: CC(C)C[C@@H]1NC(=O)[C@@H](N(C)C(=O)[C@@H](NC(=O)[C@@H]2C[C@@H](F)CN2C(=O)C2(C(F)(F)F)CCC2)C2CC2)CCCCCCCNC(=O)[C@H](Cc2cc(Cl)cnc2OC(C)C)N(C)C1=O [Example 138] ({Cyclobutanecarbonyl(1-CF3)}-[Pro(trans-4-F)][Gly(cPr)][NMe(hhhLys)]L[NMe3Pal(2-OiPr,5-Cl)]; lactam 3-C)
Target Of Assay: CyclinA2/CDK2 (Homo sapiens, UniProt P20248)
Readout Kind: IC50
Result Units: nM
Recorded Measurement: 30

Compound: CC(C)C[C@@H]1NC(=O)[C@@H](N(C)C(=O)[C@@H](NC(=O)[C@@H]2C[C@@H](F)CN2C(=O)C2(C(F)(F)F)CC(F)(F)C2)C2CC2)C/C=C\CCCCN(C)C(=O)[C@H](Cc2cc(Cl)cnc2OC2CC2)N(C)C1=O
Target Of Assay: CyclinA2/CDK2 (Homo sapiens, UniProt P20248)
Readout Kind: IC50
Result Units: nM
Recorded Measurement: 70

###

Property: GI50; scope: individual compounds
- Test system: NCI-H1048 cells
- Assay Text: MTT proliferation assay, NCI-H1048;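 also: Dose-response in 96-well plates over 8 or 10 concentration points, with exposure spanning 3-4 cell doublings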
- Format: cell-based
- Test Context: 5 days compound exposure, 1:3 serial dilution starting at 10 μM
*1 amine or outer side, *2 acyl side, *3 side chain or, on linkers, in order; H or OH if unused. Where a SMILES comes first, the peptide text is derived from it. Bridges are numbered along the chain shown (N, C = ends). [ ]: non-standard residue; d: D form. The star is where a group is joined. NMePhe(2-(4-MorPh),5-Cl) = CN[C@@H](Cc1cc(Cl)ccc1-c1ccc(N2CCOCC2)cc1)C(=O)O; X37 = CN1CCN(c2ccc(-c3ccc(F)cc3C[C@@H](C(=O)[*:2])N(C)[*:1])cn2)CC1; NMehhhLys(Me) = CN([C@@H](CCCCCCCN(C)[*:3])C(=O)[*:2])[*:1]; cBuCO(3,3-F2-1-CF3) = O=C(C1(C(F)(F)F)CC(F)(F)C1)*; Pro(trans-4-F) = O=C(O)[C@@H]1C[C@@H](F)CN1; Nva(5-OH) = N[C@@H](CCCO)C(=O)O; Gly(cPr) = N[C@H](C(=O)O)C1CC1

Compound: CC(C)C[C@@H]1NC(=O)[C@@H](N(C)C(=O)[C@H](CCCO)NC(=O)[C@@H]2C[C@@H](F)CN2C(=O)C2(C(F)(F)F)CC(F)(F)C2)CCCCCCCN(C)C(=O)[C@H](Cc2cc(Cl)ccc2-c2ccc(N3CCOCC3)cc2)N(C)C1=O [Example 421] ({cBuCO(3,3-F2-1-CF3)}-[Pro(trans-4-F)][Nva(5-OH)][NMehhhLys(Me)]L[NMePhe(2-(4-MorPh),5-Cl)]; lactam 3-C)
Result Units: nM
GI50: 10

Compound: CC(=O)N1CC=C(c2ccc(Cl)cc2C[C@H]2C(=O)NCCC=CCCC[C@H](N(C)C(=O)[C@@H](NC(=O)[C@@H]3C[C@@H](F)CN3C(=O)C3(C(F)(F)F)CC(F)(F)C3)C3CC3)C(=O)N[C@@H](CC(C)C)C(=O)N2C)CC1
Result Units: nM
GI50: 60

Compound: CC(C)C[C@@H]1NC(=O)[C@@H](N(C)C(=O)[C@@H](NC(=O)[C@@H]2C[C@@H](F)CN2C(=O)C2(C(F)(F)F)CC(F)(F)C2)C2CC2)CCCCCCCN(C)C(=O)[C@H](Cc2cc(F)ccc2-c2ccc(N3CCN(C)CC3)nc2)N(C)C1=O [Example 391] ({cBuCO(3,3-F2-1-CF3)}-[Pro(trans-4-F)][Gly(cPr)][NMehhhLys(Me)]L[X37]; lactam 3-C)
Result Units: nM
GI50: 10

Reference for the values: patent US20240408169A1
